- Protocol Summary: Resorption: excretion of Silybinin in rat bile after intragastric administration, quantitative TLC
- Set-up: species or system male Wistar SPF rats
- Applied Conditions: in vivo, po, 5 mg/kg
- Procedure: In a further experiment the resorption of Silymarin, Silybinin and of the complex of Example 6 was evaluated. For this purpose the excretion of Silybinin in the rat bile was determined in a conventional model experiment. Anesthetized male Wistar SPF rats kept under conventional conditions, were cannulated at the ductus choledochus. […] The Silybinin content in the bile fluid was determined by quantitative thin layer chromatography.

Molecule: COc1cc(C2Oc3cc(C4Oc5cc(O)cc(O)c5C(=O)C4O)ccc3OC2CO)ccc1O (stereo not shown)
Units Label: %
dose excreted at 5 h: 0.21

Values from patent US5198430A
